- Tgt: Kinesin-derived angiogenesis inhibitor (KAI), biotinylated (human) (UniProt Q9NQT8)
- Sequence (Q9NQT8 1238-1260): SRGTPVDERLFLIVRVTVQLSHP
- Assay summary: SPR
Experimental endpoint: Kd

Exercise: Provide measured Kd value, entry: recombinant cytosolic domain of PDGFRB (domain or fragment)
Key: > 0.2 µM
